- MEASUREMENT DESCRIPTION: Cytotoxicity (LDH assay) against HepG2 cells
- Assay type: cell-based
- CONDITION SUMMARY: human
OBSERVABLE: IC50 at 24 h (µM)
Numbers only, in µM.

Problem: Which measured IC50 at 24 h value corresponds to CCN(CC)CCCC(C)Nc1ccnc2cc(Cl)ccc12 (stereo not shown) ?
Solution: 58.4

====

- Test system: early-stage (EG) Pf NF54 gametocytes
- MEASUREMENT DESCRIPTION: Luciferase assay, early-stage gametocytes
- Assay type: cell-based, Plasmodium falciparum
- CONDITION SUMMARY: Plasmodium falciparum, NF54, 48 h, early-stage gametocytes >95% stages II-III; 48 h incubation; ± SEM
OBSERVABLE: IC50 (nM)
Give bare numbers, in nM.

COMPOUND SMILES	OBSERVABLE	MEAS VALUE
C[C@H]1[C@H](N2C=CS(=O)(=O)CC2)O[C@@H]2O[C@@]3(C)CC[C@H]4[C@H](C)CC[C@@H]1[C@@]24OO3	IC50	13.4

--- query ---
Problem: Which IC50 value is on record for C[C@H]1[C@H](N2CC[S+]([O-])CC2)O[C@@H]2O[C@@]3(C)CC[C@H]4[C@H](C)CC[C@@H]1[C@@]24OO3 ?
Solution: 18.9

====

- MEASUREMENT DESCRIPTION: Pharmacokinetics and metabolism after iv and po administration
- Assay type: in vivo
- CONDITION SUMMARY: male, C57/BL6, mouse, plasma, po, 50 mg/kg, 0.25 h after po 50 mg/kg artemisone 7; read-out: Mean po circulating concentration
OBSERVABLE: concentration at 0.25 h (nM)
Answers are plain numbers, in nM.

Problem: I have this compound here, C[C@H]1[C@H](N2CCS(=O)(=O)CC2)O[C@@H]2O[C@@]3(C)CC[C@H]4[C@H](C)CC[C@@H]1[C@@]24OO3 , and I need its recorded concentration at 0.25 h.
Solution: 1520

====

- MEASUREMENT DESCRIPTION: Pharmacokinetics and metabolism after iv and po administration
- Assay type: in vivo
- CONDITION SUMMARY: male, C57/BL6, mouse, plasma, iv, 5 mg/kg, iv 5 mg/kg, parent drug; mean ± SD; read-out: t½ (converted)
OBSERVABLE: half-life
In your response, put the unit directly after the numeric value.

MOLECULE	MEAS VALUE
C[C@H]1[C@H](N2CCS(=O)(=O)CC2)O[C@@H]2O[C@@]3(C)CC[C@H]4[C@H](C)CC[C@@H]1[C@@]24OO3	24 min
C[C@H]1[C@H](N2CCSCC2)O[C@@H]2O[C@@]3(C)CC[C@H]4[C@H](C)CC[C@@H]1[C@@]24OO3 [Artemiside 5, Artemiside]	72 min

// next item, half-life requested
Problem: Report half-life for C[C@H]1[C@H](N2CC[S+]([O-])CC2)O[C@@H]2O[C@@]3(C)CC[C@H]4[C@H](C)CC[C@@H]1[C@@]24OO3 please.
Solution: 25.8 min

====

- MEASUREMENT DESCRIPTION: Pharmacokinetics and metabolism after iv and po administration
- Assay type: in vivo
- CONDITION SUMMARY: male, C57/BL6, mouse, plasma, po, 50 mg/kg, 3 h after po 50 mg/kg artemisox 6; read-out: Mean po circulating concentration
Would you mind telling me the reported concentration at 3 h of each entry?
Answers are plain numbers, in nM.

COMPOUND	concentration at 3 h, nM
C[C@H]1[C@H](N2CC[S+]([O-])CC2)O[C@@H]2O[C@@]3(C)CC[C@H]4[C@H](C)CC[C@@H]1[C@@]24OO3 [Artemisox 6, Artemisox]	13

Proceeding to the next compound to report its concentration at 3 h.
Problem: May I ask what concentration at 3 h has been recorded for C[C@H]1[C@H](N2CCS(=O)(=O)CC2)O[C@@H]2O[C@@]3(C)CC[C@H]4[C@H](C)CC[C@@H]1[C@@]24OO3 [Artemisone 7, Artemisone] ?
Solution: 48

====

For each entry below, report its half-life value.
- MEASUREMENT DESCRIPTION: Pharmacokinetics and metabolism after iv and po administration
- Assay type: in vivo
- CONDITION SUMMARY: male, C57/BL6, mouse, plasma, po, 50 mg/kg, po 50 mg/kg, parent drug; mean ± SD; read-out: t½ (converted)
One number for each entry, in min.

# example entries with known answers
MOLECULE	U	half-life
C[C@H]1[C@H](N2CC[S+]([O-])CC2)O[C@@H]2O[C@@]3(C)CC[C@H]4[C@H](C)CC[C@@H]1[C@@]24OO3	min	32.4
C[C@H]1[C@H](N2CCSCC2)O[C@@H]2O[C@@]3(C)CC[C@H]4[C@H](C)CC[C@@H]1[C@@]24OO3 [Artemiside 5, Artemiside]	min	84

We next turn to a different molecule, shown below.
Problem: Find the recorded half-life belonging to C[C@H]1[C@H](N2CCS(=O)(=O)CC2)O[C@@H]2O[C@@]3(C)CC[C@H]4[C@H](C)CC[C@@H]1[C@@]24OO3 and report it.
Solution: 23.4

Value source: paper PMC8704606
